Molecular target: T1, Dimeric monkey CD48-mFc (monkey)
T1 construct: Soluble monkey CD48 with a C-terminal Fc fusion [mFc]; the whole entry is the construct
T1 chain: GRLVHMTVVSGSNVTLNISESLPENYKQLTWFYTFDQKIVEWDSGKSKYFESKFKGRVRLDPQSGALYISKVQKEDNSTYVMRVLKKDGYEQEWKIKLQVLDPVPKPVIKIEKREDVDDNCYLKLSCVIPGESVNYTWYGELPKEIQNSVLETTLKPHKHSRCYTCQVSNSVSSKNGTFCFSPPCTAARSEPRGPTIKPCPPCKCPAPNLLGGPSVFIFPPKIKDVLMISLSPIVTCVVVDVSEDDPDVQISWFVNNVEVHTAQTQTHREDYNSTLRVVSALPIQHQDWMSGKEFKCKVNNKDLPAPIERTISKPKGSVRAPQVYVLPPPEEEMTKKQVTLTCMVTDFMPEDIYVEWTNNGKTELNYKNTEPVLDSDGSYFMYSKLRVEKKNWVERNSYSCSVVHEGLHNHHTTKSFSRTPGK
Test: SPR (Biacore), antibody captured by anti-Fc, CD48 in solution, 25 C
Reported pKd values are given for each entry in this list.
// pKd: -log10(molar conc.)

{"binder": "H4H1778P (antibody, human IgG4, V domains shown, Human IgG4 Fc (H4H)) VH: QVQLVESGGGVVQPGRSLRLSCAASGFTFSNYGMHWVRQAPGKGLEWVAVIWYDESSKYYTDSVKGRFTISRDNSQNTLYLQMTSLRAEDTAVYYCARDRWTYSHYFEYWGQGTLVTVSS VL: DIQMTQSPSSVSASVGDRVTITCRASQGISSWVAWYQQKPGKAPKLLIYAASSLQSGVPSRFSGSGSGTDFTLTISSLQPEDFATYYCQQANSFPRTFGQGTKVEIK", "recorded.measurement": 10.34}
{"binder": "H4H1779P (antibody, human IgG4, V domains shown, Human IgG4 Fc (H4H)) VH: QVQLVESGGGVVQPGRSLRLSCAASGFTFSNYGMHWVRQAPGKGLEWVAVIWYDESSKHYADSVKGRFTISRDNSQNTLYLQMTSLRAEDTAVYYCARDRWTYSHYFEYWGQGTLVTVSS VL: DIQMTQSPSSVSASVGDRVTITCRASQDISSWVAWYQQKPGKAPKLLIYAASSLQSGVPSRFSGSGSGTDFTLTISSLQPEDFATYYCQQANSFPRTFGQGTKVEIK", "recorded.measurement": 10.22}
{"binder": "H4H1713N (antibody, V domains shown, Human IgG4 Fc (H4H)) VH: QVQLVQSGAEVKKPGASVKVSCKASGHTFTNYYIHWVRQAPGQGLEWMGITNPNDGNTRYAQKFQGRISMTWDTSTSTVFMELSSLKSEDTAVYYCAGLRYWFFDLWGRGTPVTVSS VL: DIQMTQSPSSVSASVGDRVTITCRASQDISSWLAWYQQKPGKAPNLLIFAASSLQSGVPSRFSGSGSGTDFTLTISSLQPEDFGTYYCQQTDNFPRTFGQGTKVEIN", "recorded.measurement": 9.55}
{"binder": "H4H1771P (antibody, human IgG4, V domains shown, Human IgG4 Fc (H4H)) VH: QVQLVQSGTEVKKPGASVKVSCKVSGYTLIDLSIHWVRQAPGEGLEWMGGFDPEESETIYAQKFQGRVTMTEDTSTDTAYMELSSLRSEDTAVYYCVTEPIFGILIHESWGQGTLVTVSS VL: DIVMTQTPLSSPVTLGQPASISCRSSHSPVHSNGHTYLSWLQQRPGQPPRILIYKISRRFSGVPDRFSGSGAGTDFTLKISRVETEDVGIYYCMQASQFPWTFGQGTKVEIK", "recorded.measurement": 10.23}
{"binder": "H4H1772P (antibody, human IgG4, V domains shown, Human IgG4 Fc (H4H)) VH: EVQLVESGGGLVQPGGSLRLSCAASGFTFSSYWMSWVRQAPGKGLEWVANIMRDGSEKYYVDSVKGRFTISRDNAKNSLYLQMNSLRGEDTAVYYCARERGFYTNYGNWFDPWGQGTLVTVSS VL: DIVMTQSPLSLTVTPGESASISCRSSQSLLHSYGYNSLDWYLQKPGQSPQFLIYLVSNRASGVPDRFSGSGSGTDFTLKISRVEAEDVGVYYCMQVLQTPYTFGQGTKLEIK", "recorded.measurement": 10.01}

Now examine the next entry.
Prompt line: Need pKd of H4H1707N (antibody, V domains shown, Human IgG4 Fc (H4H)) VH: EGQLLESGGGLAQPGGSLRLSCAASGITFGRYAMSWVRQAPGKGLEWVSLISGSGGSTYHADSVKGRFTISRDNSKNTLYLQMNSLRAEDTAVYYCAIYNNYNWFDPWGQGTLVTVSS VL: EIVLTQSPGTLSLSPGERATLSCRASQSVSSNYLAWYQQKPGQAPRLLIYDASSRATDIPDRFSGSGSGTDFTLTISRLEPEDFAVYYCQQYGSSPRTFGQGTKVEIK , thanks.
Response line: 8.83

Provenance of the data: patent US20130230533A1
